Tested on: MV4-11
experiment notes: cells
conditions used: Homo sapiens, MV4-11, 96 h
What pIC50 was measured for each of the following?
# pIC50: negative log10 of molar concentration; output just the value

Exercise: State its pIC50 on MV4-11: N#Cc1ccc(OCCCN2CCC(C3(C4CCCC4)NCCc4ccccc43)CC2)cc1 (stereo not drawn)
Solution: 5.85

Exercise: Request - read-out pIC50 | tested on MV4-11 | compound O=S(=O)(c1ccncc1)c1ccc(N2CC(CN3CCC(C4(C5CCCC5)CN(CCN5CCOCC5)Cc5ccccc54)CC3)C2)cc1 (stereo not drawn)
Solution: 5.81

Exercise: Short answer please: pIC50, MV4-11, entry CC(C)N1Cc2ccccc2C(C2CCCC2)(C2CCN(CC3CN(c4ccc(S(=O)(=O)c5ccncc5)cc4)C3)CC2)C1 (stereo not drawn)
Solution: 6.04

Exercise: Look up pIC50 with MV4-11 for this compound: O=S(=O)(c1ccc(N2CC(CN3CCC(C4(C5CCCC5)NCCc5ccccc54)CC3)C2)cc1)C1CCCCC1 (stereo not drawn)
Solution: 5.96

Exercise: For MV4-11, provide pIC50 of N#Cc1ccc(N2CCC(N3CCC(C4(C5CCCC5)NCCc5ccccc54)CC3)CC2)cc1 (stereo not drawn) please.
Solution: 5.20

Exercise: Query pIC50 on MV4-11 for O=S(=O)(c1ccc(N2CC(CN3CCC(C4(C5CCCC5)NCCc5ccccc54)CC3)C2)cc1)C1CC1 (stereo not drawn)
Solution: 5.92

Exercise: For MV4-11, provide pIC50 of O=S(=O)(c1ccncc1)c1ccc(N2CC(CN3CCC(C4(C5CCCC5)CN(Cc5ccncc5)Cc5ccccc54)CC3)C2)cc1 (stereo not drawn) please.
Solution: 5.88

Exercise: Form: Entry = CC(C)S(=O)(=O)c1ccc(N2CC(CN3CCC(C4(C5CCCC5)NCCc5ccccc54)CC3)C2)cc1 (stereo not drawn) | System = MV4-11 | pIC50 = ____
Solution: 5.96

###

assayed system: Menin (Homo sapiens, UniProt O00255)
experiment notes: Inhibition of fluorescent probe binding to Menin (2 to 610 residues containing deletion from 460-519) (unknown origin) after 60 mins by fluorescence polarization competitive binding assay
Sequence (O00255 whole entry, looked up, the tested form may be a part): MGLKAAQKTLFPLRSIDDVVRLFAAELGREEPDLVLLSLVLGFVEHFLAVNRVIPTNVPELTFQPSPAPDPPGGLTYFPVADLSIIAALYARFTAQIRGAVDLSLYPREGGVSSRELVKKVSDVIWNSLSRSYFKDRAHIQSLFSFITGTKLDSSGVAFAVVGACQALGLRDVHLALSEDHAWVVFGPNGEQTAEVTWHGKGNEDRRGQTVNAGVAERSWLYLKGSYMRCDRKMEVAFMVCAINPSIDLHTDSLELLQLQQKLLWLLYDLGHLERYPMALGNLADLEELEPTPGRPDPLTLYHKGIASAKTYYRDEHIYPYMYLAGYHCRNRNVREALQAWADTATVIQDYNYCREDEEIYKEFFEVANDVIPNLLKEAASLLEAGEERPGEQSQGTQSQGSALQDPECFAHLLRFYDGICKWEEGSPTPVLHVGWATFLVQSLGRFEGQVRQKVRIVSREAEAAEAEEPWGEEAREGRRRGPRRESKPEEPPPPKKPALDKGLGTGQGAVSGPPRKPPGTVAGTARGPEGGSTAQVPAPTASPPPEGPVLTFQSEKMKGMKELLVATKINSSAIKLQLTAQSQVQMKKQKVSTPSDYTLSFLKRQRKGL
measured endpoint: IC50

Exercise: IC50 for COC(=O)N[C@H]1CCC[C@@H]1[C@](C#N)(c1cccc(F)c1)C1CCN(CC2CN(c3ccc(S(=O)(=O)C4CN(C(=O)/C=C/CN(C)C)C4)cc3)C2)CC1 ?
Solution: 3 nM

###

Provide the reported pKd of each item.
assayed system: UniProt O00255
experiment notes: Binding affinity to human Menin expressed in Escherichia coli Rosetta2 (DE3) cells by isothermal titration calorimetry
Sequence (O00255 whole entry, the tested form may be a part): as the sequence (O00255 whole entry, looked up, the tested form may be a part) above
Just so you know, pKd here is -log10 of the concentration in molar units; reply with that number alone.

Exercise: Any idea what pKd came out for N#Cc1cc2cc(CN3CCC(Nc4ncnc5sc(CC(F)(F)F)cc45)CC3)c(O)cc2n1Cc1cn[nH]c1 on UniProt O00255?
Solution: 8.00

Exercise: Observed pKd on UniProt O00255 for Cc1c(CN2CCC(Nc3ncnc4sc(CC(F)(F)F)cc34)CC2)ccc2c1cc(C#N)n2Cc1cn[nH]c1 , please.
Solution: 8.00

###

# Ki measurements, system: Menin (Homo sapiens)
Response body: numeric value in nM, unit text excluded.

Exercise: Which Ki value is on record for N#Cc1ccc(N2CC(CN3CCC(C4(C5CCCC5)NCCc5ccccc54)CC3)C2)cc1 (centres undefined) ?
Solution: 11

Exercise: Given CC(C)S(=O)(=O)c1ccc(N2CC(CN3CCC(C4(C5CCCC5)NCCc5ccccc54)CC3)C2)cc1 (centres undefined) , state its recorded Ki.
Solution: 21

Exercise: Can you share its Ki? I mean this compound: O=S(=O)(c1ccncc1)c1ccc(N2CC(CN3CCC(C4(C5CCCC5)CN(Cc5ccncc5)Cc5ccccc54)CC3)C2)cc1 (centres undefined)
Solution: 361

Exercise: Consider the compound shown here: O=S(=O)(c1ccc(N2CC(CN3CCC(C4(C5CCCC5)NCCc5ccccc54)CC3)C2)cc1)C1CCCC1 (centres undefined) What is its recorded Ki?
Solution: 4.6
